Reported Dmax values for the following molecules.
molecular target: BRAF G469A (Homo sapiens, UniProt P15056, G469A); construct: Horizon Discovery (HCT-116 BRAF−/− cells); host or cells: HCT-116 BRAF−/− cells, clone 34, lentiviral transduction; test: BRAF HiBiT degradation assay, C-terminal HiBiT-tagged BRAF G469A overexpressed in HCT-116 BRAF−/− cells (clone 34), Nano-Glo HiBiT Lytic assay; assay type: cell-based; conditions: HCT-116; Class 2; BRAF G469A; percentage protein degraded at maximal compound effect relative to DMSO
Sequence (P15056 whole entry G469A): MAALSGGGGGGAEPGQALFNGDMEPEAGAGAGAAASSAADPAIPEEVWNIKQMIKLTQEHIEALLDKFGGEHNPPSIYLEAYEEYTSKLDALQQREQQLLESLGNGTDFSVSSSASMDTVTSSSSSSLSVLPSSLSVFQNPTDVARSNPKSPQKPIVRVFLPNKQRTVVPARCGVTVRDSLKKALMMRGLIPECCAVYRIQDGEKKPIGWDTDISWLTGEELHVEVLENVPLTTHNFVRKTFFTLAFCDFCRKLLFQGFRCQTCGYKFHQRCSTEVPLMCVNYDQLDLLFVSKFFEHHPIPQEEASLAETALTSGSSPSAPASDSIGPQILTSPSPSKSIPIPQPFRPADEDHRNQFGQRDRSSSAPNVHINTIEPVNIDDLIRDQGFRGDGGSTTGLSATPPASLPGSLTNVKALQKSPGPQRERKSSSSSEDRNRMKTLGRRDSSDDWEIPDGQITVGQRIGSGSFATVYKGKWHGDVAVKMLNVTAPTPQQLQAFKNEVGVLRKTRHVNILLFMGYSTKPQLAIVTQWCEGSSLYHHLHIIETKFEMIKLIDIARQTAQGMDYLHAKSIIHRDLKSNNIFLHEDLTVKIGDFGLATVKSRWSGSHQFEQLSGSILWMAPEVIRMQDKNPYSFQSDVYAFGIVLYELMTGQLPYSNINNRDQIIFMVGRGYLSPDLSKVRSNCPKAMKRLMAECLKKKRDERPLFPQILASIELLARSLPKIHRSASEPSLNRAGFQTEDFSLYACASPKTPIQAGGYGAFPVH
result type: Dmax

INSERT INTO results (molecule, result_type, reported_result) VALUES
  ('CCCS(=O)(=O)Nc1cccc(-c2nc(C3CCC4(CC3)CCN(C(=O)CCCCCc3ccc5c(c3)C(=O)N(C3CCC(=O)NC3=O)C5)CC4)sc2-c2ccnc(N)n2)c1F (racemic)', 'Dmax', '30 to 70%'),
  ('CCCS(=O)(=O)Nc1cccc(-c2cn(-c3ccc(C4CCN(CC5CCN(c6ccc(C7CCC(=O)NC7=O)cc6F)CC5)CC4)cc3)nc2-c2ccncc2)c1F (racemic)', 'Dmax', '< 30%'),
  ('CCCS(=O)(=O)Nc1cccc(-c2nc(C3CCN(C(=O)C4CCN(C(=O)C5(C)CCN(c6ccc(C7CCC(=O)NC7=O)cn6)CC5)CC4)CC3)sc2-c2ccnc(N)n2)c1F (racemic)', 'Dmax', '30 to 70%'),
  ('CCCS(=O)(=O)Nc1cccc(-c2nc(C(C)(C)C)sc2-c2ccnc(Nc3cnn(CC4CCN(C(=O)[C@H]5CC[C@H](Oc6ccc(C7CCC(=O)NC7=O)cn6)CC5)CC4)c3)n2)c1F (mixture of isomers)', 'Dmax', '< 30%');
